Ref: patent US20150086530A1

- assay_details: AT2220 concentration in muscle biopsies by LC-MS/MS in Pompe patients
- Assay type: in vivo, human
- condition_parameters: human, muscle, oral, 50 mg, Cohort 1, 50 mg AT2220, Period 2, biopsy Day 7, individual subjects; LLOQ = 8.0 ng/g (16.0 or […] for diluted samples); read-out: Muscle AT2220 Conc

mol	concentration at 7 day, ng/g
OC[C@H]1NC[C@H](O)[C@@H](O)[C@@H]1O	13.1

* * *

- assay_details: AT2220 concentration in muscle biopsies by LC-MS/MS in Pompe patients
- Format: in vivo, human
- condition_parameters: human, muscle, oral, 50 mg, Patient B; 50 mg; Period 2, Day 7; LLOQ = 8.0 ng/g; read-out: Muscle AT2220 Conc
experimental_readout: concentration at 7 day (ng/g)

mol	units_label	quantitative_result
OC[C@H]1NC[C@H](O)[C@@H](O)[C@@H]1O	ng/g	10

* * *

- assay_details: AT2220 concentration in muscle biopsies by LC-MS/MS in Pompe patients
- Format: in vivo, human
- condition_parameters: human, muscle, oral, 250 mg, Cohort 3, 250 mg AT2220, Period 2, biopsy Day 3, individual subjects; LLOQ = 8.0 ng/g (16.0 or […] for diluted samples); read-out: Muscle AT2220 Conc

mol	units_label	concentration at 3 day
OC[C@H]1NC[C@H](O)[C@@H](O)[C@@H]1O	ng/g	54.4

* * *

- assay_details: Plasma AT2220 (1-deoxynojirimycin hydrochloride) pharmacokinetics by LC-MS/MS in Pompe patients
- Format: in vivo, human
- condition_parameters: human, plasma, oral, 250 mg, 250 mg AT2220 (N = 6), Cohort 3; Geometric mean (CV %); read-out: Plasma AT2220 AUC0-T

mol	AUC(0-t) (µg·h/mL)
OC[C@H]1NC[C@H](O)[C@@H](O)[C@@H]1O	21.8

* * *

- assay_details: Plasma AT2220 (1-deoxynojirimycin hydrochloride) pharmacokinetics by LC-MS/MS in Pompe patients
- Type: in vivo, human
- condition_parameters: human, plasma, po, 100 mg, 100 mg single oral dose (N=6); geometric mean (CV %); read-out: AUC0-∞, plasma AT2220

mol	AUC(0-inf)
OC[C@H]1NC[C@H](O)[C@@H](O)[C@@H]1O	13.1 µg·h/mL

* * *

- assay_details: AT2220 concentration in muscle biopsies by LC-MS/MS in Pompe patients
- Assay type: in vivo, human
- condition_parameters: human, muscle, oral, 100 mg, Patient E; 100 mg; Period 2, Day 3; LLOQ = 8.0 ng/g; read-out: Muscle AT2220 Conc

molecule	concentration at 3 day (ng/g)
OC[C@H]1NC[C@H](O)[C@@H](O)[C@@H]1O [AT2220]	17.8

* * *

- assay_details: Plasma AT2220 (1-deoxynojirimycin hydrochloride) pharmacokinetics by LC-MS/MS in Pompe patients
- Format: in vivo, human
- condition_parameters: human, plasma, oral, 250 mg, 250 mg AT2220 (N = 6), Cohort 3; Geometric mean (CV %); read-out: Plasma AT2220 Cmax

molecule	Cmax [ng/mL]
OC[C@H]1NC[C@H](O)[C@@H](O)[C@@H]1O [AT2220]	3150

* * *

- assay_details: AT2220 concentration in muscle biopsies by LC-MS/MS in Pompe patients
- Type: in vivo, human
- condition_parameters: human, muscle, oral, 50 mg, Patient C; 50 mg; Period 2, Day 7; LLOQ = 8.0 ng/g; read-out: Muscle AT2220 Conc

molecule	concentration at 7 day [ng/g]
OC[C@H]1NC[C@H](O)[C@@H](O)[C@@H]1O [AT2220]	13.1

* * *

- assay_details: Plasma AT2220 (1-deoxynojirimycin hydrochloride) pharmacokinetics by LC-MS/MS in Pompe patients
- Type: in vivo, human
- condition_parameters: human, plasma, oral, 250 mg, Cohort 3, 250 mg AT2220, Median, N=6; read-out: Plasma AT2220 AUC0-∞

mol	units_label	AUC(0-inf)
OC[C@H]1NC[C@H](O)[C@@H](O)[C@@H]1O	ng·h/mL	20900

* * *

- assay_details: Plasma AT2220 (1-deoxynojirimycin hydrochloride) pharmacokinetics by LC-MS/MS in Pompe patients
- Format: in vivo, human
- condition_parameters: human, plasma, oral, 250 mg, Cohort 3, 250 mg AT2220, Mean, N=6; read-out: Plasma AT2220 AUC0-T
experimental_readout: AUC(0-t) (ng·h/mL)

compound	quantitative_result
OC[C@H]1NC[C@H](O)[C@@H](O)[C@@H]1O [AT2220]	22100

* * *

Cmax: recorded values
- assay_details: Cmax following 30 mg/kg oral AT2220 or AT2221 in mice
- Assay type: in vivo
- condition_parameters: mouse, plasma

compound	Cmax
CCCCN1C[C@H](O)[C@@H](O)[C@H](O)[C@H]1CO [AT2221, reference compound]	~40 µM
OC[C@H]1NC[C@H](O)[C@@H](O)[C@@H]1O	~40 µM

* * *

- assay_details: Plasma AT2220 (1-deoxynojirimycin hydrochloride) pharmacokinetics by LC-MS/MS in Pompe patients
- Assay type: in vivo, human
- condition_parameters: human, plasma, oral, 250 mg, Cohort 3, 250 mg AT2220, Geometric Mean, N=6; read-out: Plasma AT2220 AUC0-∞
- Procedure: Blood samples for pharmacokinetic analysis will be collected before dosing 1-deoxynojirimycin hydrochloride and at 1 hour after administration of 1-deoxynojirimycin hydrochloride (i.e., immediately before initiation of the alglucosidase alfa infusion) and over the 24-hour period after initiation of the alglucosidase alfa infusion. […] Concentrations of 1-deoxynojirimycin hydrochloride in blood samples will be measured in plasma using a validated LC-MS/MS assay. […]
experimental_readout: AUC(0-inf) (ng·h/mL)

mol	experimental_readout	quantitative_result
OC[C@H]1NC[C@H](O)[C@@H](O)[C@@H]1O	AUC(0-inf)	22100

* * *

- assay_details: AT2220 concentration in muscle biopsies by LC-MS/MS in Pompe patients
- Assay type: in vivo, human
- condition_parameters: human, muscle, oral, 250 mg, Cohort 3, 250 mg AT2220, Period 2, biopsy Day 7, individual subjects; LLOQ = 8.0 ng/g (16.0 or […] for diluted samples); read-out: Muscle AT2220 Conc

mol	concentration at 7 day (ng/g)
OC[C@H]1NC[C@H](O)[C@@H](O)[C@@H]1O	28.1

* * *

- assay_details: Plasma AT2220 (1-deoxynojirimycin hydrochloride) pharmacokinetics by LC-MS/MS in Pompe patients
- Assay type: in vivo, human
- condition_parameters: human, plasma, oral, 50 mg, 50 mg AT2220 (N = 4), Cohort 1; Median (range); read-out: Plasma AT2220 Tmax

mol	Tmax / h
OC[C@H]1NC[C@H](O)[C@@H](O)[C@@H]1O	2

* * *

- assay_details: Plasma AT2220 (1-deoxynojirimycin hydrochloride) pharmacokinetics by LC-MS/MS in Pompe patients
- Assay type: in vivo, human
- condition_parameters: human, plasma, po, 50 mg, 50 mg single oral dose (N=4); arithmetic mean (SD); read-out: t½, plasma AT2220 (converted)

compound	units_label	half-life
OC[C@H]1NC[C@H](O)[C@@H](O)[C@@H]1O [AT2220]	h	3.1

* * *

- assay_details: AT2220 concentration in muscle biopsies by LC-MS/MS in Pompe patients
- Assay type: in vivo, human
- condition_parameters: human, muscle, oral, 100 mg, Cohort 2, 100 mg AT2220, Period 2, biopsy Day 3, individual subjects; LLOQ = 8.0 ng/g (16.0 or […] for diluted samples); read-out: Muscle AT2220 Conc

mol	concentration at 3 day
OC[C@H]1NC[C@H](O)[C@@H](O)[C@@H]1O	17.8 ng/g

* * *

- assay_details: Plasma AT2220 (1-deoxynojirimycin hydrochloride) pharmacokinetics by LC-MS/MS in Pompe patients
- Assay type: in vivo, human
- condition_parameters: human, plasma, oral, 250 mg, Cohort 3, 250 mg AT2220, Mean, N=6; read-out: Plasma AT2220 Cmax

compound	Cmax, ng/mL
OC[C@H]1NC[C@H](O)[C@@H](O)[C@@H]1O [AT2220]	3300

* * *

- assay_details: Plasma AT2220 (1-deoxynojirimycin hydrochloride) pharmacokinetics by LC-MS/MS in Pompe patients
- Type: in vivo, human
- condition_parameters: human, plasma, oral, 250 mg, Cohort 3, 250 mg AT2220, Geometric Mean, N=6; read-out: Plasma AT2220 Tmax
- Description: Blood samples for pharmacokinetic analysis will be collected before dosing 1-deoxynojirimycin hydrochloride and at 1 hour after administration of 1-deoxynojirimycin hydrochloride (i.e., immediately before initiation of the alglucosidase alfa infusion) and over the 24-hour period after initiation of the alglucosidase alfa infusion. […] Concentrations of 1-deoxynojirimycin hydrochloride in blood samples will be measured in plasma using a validated LC-MS/MS assay. […]

mol	Tmax, h
OC[C@H]1NC[C@H](O)[C@@H](O)[C@@H]1O	2.3

* * *

- assay_details: Plasma AT2220 (1-deoxynojirimycin hydrochloride) pharmacokinetics by LC-MS/MS in Pompe patients
- Type: in vivo, human
- condition_parameters: human, plasma, po, 100 mg, 100 mg single oral dose (N=6); geometric mean (CV %); read-out: AUC0-T, plasma AT2220
- Experimental: Blood samples for pharmacokinetic analysis will be collected before dosing 1-deoxynojirimycin hydrochloride and at 1 hour after administration of 1-deoxynojirimycin hydrochloride (i.e., immediately before initiation of the alglucosidase alfa infusion) and over the 24-hour period after initiation of the alglucosidase alfa infusion. […] Concentrations of 1-deoxynojirimycin hydrochloride in blood samples will be measured in plasma using a validated LC-MS/MS assay. […]

mol	AUC(0-t)
OC[C@H]1NC[C@H](O)[C@@H](O)[C@@H]1O	13000 ng·h/mL
